# SYSTEM_NAME: human mGluR2 (Homo sapiens (Human))
# ASSAY_REMARKS: MGluR2 cAMP assay
# STUDY_CONDITIONS: HEK293 cells clonally expressing human mGluR2, 1 μM forskolin, 1 μM LY-341495
pEC50: −log10 of the molar value.
Note to self: values exactly at 7 are 1.0. So pEC50 at or above 7 is 1.0, below is 0.0.

[
  {
    "MOLECULE": "COc1cccc(F)c1C1CCN(c2cnn3c(CC4CC4)nnc3c2C(F)(F)F)CC1 [Example 71]",
    "DISCRETE_LABEL": 1.0
  },
  {
    "MOLECULE": "Fc1cccc(C2CCN(c3cnn4c(CC5CC5)nnc4c3Cl)CC2)c1",
    "DISCRETE_LABEL": 1.0
  },
  {
    "MOLECULE": "Fc1ccccc1C1CCN(c2cnn3c(CC(F)(F)F)nnc3c2Cl)CC1",
    "DISCRETE_LABEL": 1.0
  },
  {
    "MOLECULE": "FC(F)(F)c1ccccc1C1CCN(c2cnn3c(CC4CC4)nnc3c2Cl)CC1",
    "DISCRETE_LABEL": 1.0
  },
  {
    "MOLECULE": "O=C1Oc2ccccc2C12CCN(c1cnn3c(CC4CC4)nnc3c1Cl)CC2",
    "DISCRETE_LABEL": 1.0
  }
]

# check: pEC50 of COc1cc(OC)nc(C2CCN(c3cnn4c(CC5CC5)nnc4c3Cl)CC2)n1 is greater than or equal to 7 1.0

# check: pEC50 of Clc1c(N2CCC(c3ccccc3)CC2)cnn2c(Cc3ccccc3)nnc12 is greater than or equal to 7 0.0

Record Clc1c(N2CCN(c3ncccn3)CC2)cnn2c(CC3CC3)nnc12 ; criterion: pEC50 no lower than 7. Met? 0.0

Could you please find out whether Fc1ccc(C2CCN(c3cnn4c(CC(F)(F)F)nnc4c3Cl)CC2)c(F)c1 has pEC50 that meets 7 or exceeds it? 1.0

Tell me whether pEC50 is at least 7 here: Fc1ccc(F)c(C2CCN(c3cnn4c(CC5CC5)nnc4c3Cl)CC2)c1OC(F)F 1.0

Decide: is the reported value of pEC50 for Fc1ccc(C2CCN(c3ncn4c(CC(F)(F)F)nnc4c3Cl)CC2)cc1 equal to or greater than 7? 0.0

Is reported pEC50 greater than or equal to 7 here: N#Cc1ccccc1C1CCN(c2cnn3c(CC4CC4)nnc3c2Cl)CC1 1.0

Decide: is the reported value of pEC50 for FC(F)(F)c1cccnc1C1CCN(c2cnn3c(CC4CC4)nnc3c2Cl)CC1 equal to or greater than 7? 1.0

====

Readings of pEC50 for the listed molecules
# SYSTEM_NAME: human mGluR2 (Homo sapiens (Human), UniProt Q14416)
# Sequence (Q14416 19-872): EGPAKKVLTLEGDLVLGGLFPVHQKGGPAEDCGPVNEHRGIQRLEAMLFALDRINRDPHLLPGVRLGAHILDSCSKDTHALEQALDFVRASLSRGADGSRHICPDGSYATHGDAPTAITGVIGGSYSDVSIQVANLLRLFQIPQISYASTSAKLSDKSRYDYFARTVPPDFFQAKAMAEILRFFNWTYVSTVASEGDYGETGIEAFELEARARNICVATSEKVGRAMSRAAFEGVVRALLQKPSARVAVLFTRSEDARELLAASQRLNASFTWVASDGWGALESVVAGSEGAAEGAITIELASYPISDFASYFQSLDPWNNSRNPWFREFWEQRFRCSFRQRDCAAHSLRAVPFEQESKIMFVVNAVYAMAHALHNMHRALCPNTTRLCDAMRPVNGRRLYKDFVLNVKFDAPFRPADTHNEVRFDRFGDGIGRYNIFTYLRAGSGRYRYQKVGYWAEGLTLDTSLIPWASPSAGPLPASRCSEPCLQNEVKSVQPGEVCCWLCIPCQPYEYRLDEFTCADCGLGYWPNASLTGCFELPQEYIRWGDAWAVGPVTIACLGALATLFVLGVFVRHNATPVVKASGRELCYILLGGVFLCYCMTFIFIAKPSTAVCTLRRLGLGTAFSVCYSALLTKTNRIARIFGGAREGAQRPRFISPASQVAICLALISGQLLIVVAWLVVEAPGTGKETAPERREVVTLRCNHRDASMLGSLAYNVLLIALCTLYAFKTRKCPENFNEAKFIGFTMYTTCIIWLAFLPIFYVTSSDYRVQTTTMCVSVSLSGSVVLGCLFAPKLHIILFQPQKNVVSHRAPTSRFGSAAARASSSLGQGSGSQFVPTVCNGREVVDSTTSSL
# ASSAY_REMARKS: MGluR2 cAMP assay
# STUDY_CONDITIONS: HEK293 cells clonally expressing human mGluR2, 1 μM forskolin, 1 μM LY-341495
Lab note: report pEC50 as minus log10 of the concentration in molar units, number only.

These solved cases illustrate the format of a correct answer.
[
  {
    "MOLECULE": "Fc1ccc(C2CCN(c3cnn4c(CC5CC5)nnc4c3Cl)CC2)c(F)c1 [Example 74]",
    "MEASUREMENT_KIND": "pEC50",
    "EXPERIMENTAL_RESULT": 7.85
  },
  {
    "MOLECULE": "COc1ccc(OC)c(C2CCN(c3cnn4c(CC(F)(F)F)nnc4c3Cl)CC2)c1 [Example 36]",
    "MEASUREMENT_KIND": "pEC50",
    "EXPERIMENTAL_RESULT": 8.15
  },
  {
    "MOLECULE": "Fc1ccccc1C1CCN(c2cnn3c(CC4CC4)nnc3c2Cl)CC1 [Example 23]",
    "MEASUREMENT_KIND": "pEC50",
    "EXPERIMENTAL_RESULT": 7.89
  },
  {
    "MOLECULE": "COc1ccccc1[C@@H]1C[C@H]1CNc1cnn2c(CC(F)(F)F)nnc2c1C(F)(F)F (relative stereo) [Example 85]",
    "MEASUREMENT_KIND": "pEC50",
    "EXPERIMENTAL_RESULT": 8.00
  },
  {
    "MOLECULE": "Fc1ccc([C@@H]2C[C@H]2CNc2cnn3c(CC4CC4)nnc3c2Cl)cc1 [Example 10]",
    "MEASUREMENT_KIND": "pEC50",
    "EXPERIMENTAL_RESULT": 6.80
  },
  {
    "MOLECULE": "COc1c(N2CCC(c3ccccc3)CC2)ncn2c(CC3CC3)nnc12 [Example 3]",
    "MEASUREMENT_KIND": "pEC50",
    "EXPERIMENTAL_RESULT": 6.27
  }
]

What value of pEC50 on human mGluR2 (Homo sapiens (Human), UniProt Q14416) does Clc1c(N2CCC(c3ccncc3)CC2)cnn2c(CC3CC3)nnc12 [Example 41] have? 6.56

API: value(readout= pEC50, system= human mGluR2 (Homo sapiens (Human), UniProt Q14416), query= COc1c(F)ccc(F)c1C1CCN(c2cnn3c(CC4CC4)nnc3c2C(F)(F)F)CC1 [Example 80] ) 9.70
